B1: CPEB3 Ribozyme (parent)
chain: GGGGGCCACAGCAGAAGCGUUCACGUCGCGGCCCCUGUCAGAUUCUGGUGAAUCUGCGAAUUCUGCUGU

- Variants of: B1
- measurementNotes: self-cleavage, relative activity (ratio to wild type); higher = more cleavage; co-transcriptional
parameter: self-cleavage
Would you mind answering with just the numeric figure?

Answered examples (5):
mutationSpec	parameter	readoutNumber
G48C G56A	self-cleavage	0.988
G30A G65A	self-cleavage	0.627
U46A U49A	self-cleavage	1.02
U38A U46G	self-cleavage	0.943
G3C G5U	self-cleavage	0.00743

query: Bench note: what self-cleavage did A13G C57G show?
result: 0.36

query: Bench note: what self-cleavage did G48A U62C show?
result: 0.952

query: Bench note: what self-cleavage did C22A A40U show?
result: 0.235

query: Bench note: what self-cleavage did G41U C54G show?
result: 0.95

query: Bench note: what self-cleavage did G4U A52G show?
result: 0.722

query: Bench note: what self-cleavage did C7A C32G show?
result: 0.126

query: Bench note: what self-cleavage did A8G U26A show?
result: 0.644

query: Bench note: what self-cleavage did A16C A40U show?
result: 0.0836

query: Bench note: what self-cleavage did C63A U69A show?
result: 0.949

query: Bench note: what self-cleavage did A23G G37A show?
result: 0.254

query: Bench note: what self-cleavage did G5U C27G show?
result: 0.0619

query: Bench note: what self-cleavage did U53A U61A show?
result: 0.694

query: Bench note: what self-cleavage did A8C A10G show?
result: 0.941

query: Bench note: what self-cleavage did A13C A16C show?
result: 0.102

query: Bench note: what self-cleavage did G37C C66U show?
result: 0.246

query: Bench note: what self-cleavage did G31U U44C show?
result: 0.618

query: Bench note: what self-cleavage did G11C A51U show?
result: 0.621

query: Bench note: what self-cleavage did A23C G68U show?
result: 0.995

query: Bench note: what self-cleavage did C34A U62A show?
result: 0.602

query: Bench note: what self-cleavage did C39A C54U show?
result: 0.765

query: Bench note: what self-cleavage did C33A A51C show?
result: 0.366

query: Bench note: what self-cleavage did U36C U44A show?
result: 0.854

query: Bench note: what self-cleavage did A15G G68A show?
result: 1.02

query: Bench note: what self-cleavage did G48A U64A show?
result: 0.946

query: Bench note: what self-cleavage did U49C C66U show?
result: 0.973

query: Bench note: what self-cleavage did G25A C57U show?
result: 0.205
